All figures here come from the supplement of paper PMC7877785.

Experiment: self-splicing fitness, log relative to wild type (ln ratio); higher = more splicing; Tetrahymena group I intron in knt gene, E. coli kanamycin selection, DiMSum; sequences stand for … in CUCUCU…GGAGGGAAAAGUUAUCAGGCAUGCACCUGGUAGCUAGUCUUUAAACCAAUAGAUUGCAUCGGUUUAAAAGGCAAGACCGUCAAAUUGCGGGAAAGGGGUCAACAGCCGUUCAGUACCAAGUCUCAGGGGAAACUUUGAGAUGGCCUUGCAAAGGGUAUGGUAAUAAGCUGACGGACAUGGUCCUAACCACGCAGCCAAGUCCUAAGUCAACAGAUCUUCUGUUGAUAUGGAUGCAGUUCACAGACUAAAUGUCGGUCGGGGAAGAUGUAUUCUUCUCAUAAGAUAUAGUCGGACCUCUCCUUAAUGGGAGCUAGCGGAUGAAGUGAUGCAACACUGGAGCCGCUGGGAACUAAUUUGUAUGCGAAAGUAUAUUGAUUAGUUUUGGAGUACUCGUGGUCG;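 also: selection with 25 µg/mL kanamycin versus none on LB agar overnight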
Details: 30 °C
Readout Name: self-splicing fitness (ln)

• CGCAAGCAAUAUUACGUGGA = -3.37
• GACGAGCAAUAUUACGAGAU = -2.23
• AAAAAGCAAUAUUACGUCCU = 0.148
• CAGCAGCAAUAUUACGAAAU = -3.94
• UAUCAGCAAUAUUACGACGC = -2.09
• UAGGAGCAAUAUUACGAUCA = -1.02
• CGCAAGCAAUAUUACGAUCG = -1.19
• UCCGAGCAAUAUUACGUGAC = -4.99
• AAUUAGCAAUAUUACGAGGG = -3.23
• AGAUAGCAAUAUUACGGAUC = -1.92
• AUCGAGCAAUAUUACGCGCU = -2.97
• ACGUAGCAAUAUUACGAAGG = -2.19
• UAAUAGCAAUAUUACGGGCU = -3.28
• UACAAGCAAUAUUACGACCA = -0.29
• UGGCAGCAAUAUUACGGAUG = -1.79
• UCACAGCAAUAUUACGGUGG = -3.45
